- measured_target: Histone-lysine N-methyltransferase 2A (Homo sapiens)
- method: Selectivity interaction (Methyltransferase panel (radioactive enzyme assay)) EUB0000216b MLL

>  <smiles_notation>
CC(C)N(CCCNC(=O)Nc1ccc(C(C)(C)C)cc1)C[C@H]1O[C@@H](n2cc(Br)c3c(N)ncnc32)[C@H](O)[C@@H]1O

>  <IC50>
> 100 µM

$$$$

----------
- measured_target: YEATS domain-containing protein 4 (Homo sapiens, UniProt O95619)
- Sequence (O95619 whole entry, the tested form may be a part): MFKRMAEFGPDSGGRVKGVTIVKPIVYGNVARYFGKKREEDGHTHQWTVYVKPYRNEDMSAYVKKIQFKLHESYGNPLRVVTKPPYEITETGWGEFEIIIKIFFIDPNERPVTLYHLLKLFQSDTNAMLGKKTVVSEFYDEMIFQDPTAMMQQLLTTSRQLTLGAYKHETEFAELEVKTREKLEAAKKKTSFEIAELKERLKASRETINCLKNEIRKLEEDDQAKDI
- method: Selectivity interaction (Enzyme panel (PDEs, ion channels, and GPCRS, HTRF assay)) EUB0000731a YEATS4
property_name: IC50

>  <smiles_notation>
CN(C)C(=O)c1ccc(-c2cc(C(=O)N[C@@H]3CCc4ccccc43)no2)cc1O

>  <property_name>
IC50

>  <endpoint_value>
> 40 µM

$$$$

----------
- measured_target: Casein kinase I isoform delta (Homo sapiens)
- Sequence (P48730 whole entry, canonical isoform): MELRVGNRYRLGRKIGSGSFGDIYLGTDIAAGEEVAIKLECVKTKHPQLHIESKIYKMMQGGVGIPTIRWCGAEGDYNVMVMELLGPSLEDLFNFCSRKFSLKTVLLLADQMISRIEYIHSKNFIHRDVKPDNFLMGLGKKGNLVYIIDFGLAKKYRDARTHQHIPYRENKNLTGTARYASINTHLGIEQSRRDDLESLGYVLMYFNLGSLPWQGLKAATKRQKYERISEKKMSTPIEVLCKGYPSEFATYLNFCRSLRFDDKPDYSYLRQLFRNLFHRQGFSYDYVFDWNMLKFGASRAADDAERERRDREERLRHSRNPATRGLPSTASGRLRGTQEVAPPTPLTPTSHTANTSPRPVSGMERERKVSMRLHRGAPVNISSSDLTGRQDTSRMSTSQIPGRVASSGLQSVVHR
- method: Selectivity interaction (NanoBRET assay (HEK293T cells)) EUB0000718a CSNK1D

>  <molecule>
O=C(NCCN1CCOCC1)c1ccc2c(c1)C(=O)c1ccc(Nc3ccc(F)c(NC(=O)c4ccccc4)c3)cc1CC2 [FS-694]

>  <IC50>
> 20 µM

$$$$

----------
- measured_target: Glutamate receptor ionotropic, NMDA 1 (Homo sapiens, UniProt Q05586)
- method: Selectivity interaction (PRESTO-Tango GPCR-ome screening) EUB0000539a GRIN1
property_name: Ki (nM)

>  <smiles_notation>
Cc1ccc2nc(CNCCCOc3ccccc3)cc(O)c2c1

>  <unit_of_measurement>
nM

>  <endpoint_value>
1000

$$$$

----------
- measured_target: Acetylcholinesterase (Homo sapiens, UniProt P22303)
- Sequence (P22303 whole entry): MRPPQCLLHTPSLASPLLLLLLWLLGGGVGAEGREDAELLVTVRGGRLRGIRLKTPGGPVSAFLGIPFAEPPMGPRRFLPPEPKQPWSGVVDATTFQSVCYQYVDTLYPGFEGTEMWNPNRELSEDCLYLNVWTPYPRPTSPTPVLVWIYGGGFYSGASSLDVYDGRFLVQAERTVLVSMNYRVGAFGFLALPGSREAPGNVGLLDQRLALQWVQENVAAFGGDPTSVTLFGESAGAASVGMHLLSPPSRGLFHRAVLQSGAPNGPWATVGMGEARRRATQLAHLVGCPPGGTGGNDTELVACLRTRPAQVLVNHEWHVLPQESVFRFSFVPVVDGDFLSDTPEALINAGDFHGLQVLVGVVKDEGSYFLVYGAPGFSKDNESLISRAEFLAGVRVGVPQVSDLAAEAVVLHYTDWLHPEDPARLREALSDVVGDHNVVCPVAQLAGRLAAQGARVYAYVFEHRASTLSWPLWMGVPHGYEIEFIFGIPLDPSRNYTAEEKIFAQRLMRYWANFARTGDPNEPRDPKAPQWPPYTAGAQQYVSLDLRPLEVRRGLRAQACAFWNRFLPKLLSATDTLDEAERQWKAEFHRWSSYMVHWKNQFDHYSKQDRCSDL
- method: Selectivity interaction (PSP Principial panel 20118+ (panel of GPCRs, transporter, and ion channels)) EUB0000283b ACHE
property_name: IC50 (nM)

>  <smiles_notation>
C[C@H]1CCCN1Cc1nc2cc(NC(=O)c3ccc4cnccc4c3)ccc2[nH]1

>  <property_name>
IC50

>  <endpoint_value>
250

$$$$

----------
- measured_target: Alpha-1A adrenergic receptor (Homo sapiens)
- Sequence (P35348 whole entry): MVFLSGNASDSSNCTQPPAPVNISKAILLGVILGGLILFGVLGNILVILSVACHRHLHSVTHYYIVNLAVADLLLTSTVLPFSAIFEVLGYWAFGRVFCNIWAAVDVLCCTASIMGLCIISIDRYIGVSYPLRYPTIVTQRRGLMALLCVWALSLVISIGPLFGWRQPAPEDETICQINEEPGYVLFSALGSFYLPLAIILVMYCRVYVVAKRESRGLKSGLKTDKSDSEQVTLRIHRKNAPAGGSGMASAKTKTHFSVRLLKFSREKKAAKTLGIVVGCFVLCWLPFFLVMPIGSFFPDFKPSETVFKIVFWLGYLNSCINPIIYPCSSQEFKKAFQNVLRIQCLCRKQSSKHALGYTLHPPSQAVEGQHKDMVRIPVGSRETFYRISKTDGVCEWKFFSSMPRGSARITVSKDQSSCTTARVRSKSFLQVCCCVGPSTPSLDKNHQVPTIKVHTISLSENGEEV
- method: Selectivity interaction (GPCR panel (PDSP screen)) EUB0000705a ADRA1A
pKi: −log10 of the molar value.
property_name: pKi

>  <molecule>
CN1CCN(C(=O)C(C)(C)c2ccc(C(=O)Nc3cn4cc(-c5cc(C(C)(C)C)cc(C(C)(C)C)c5)ccc4n3)cc2)CC1 [T3-CLK-N]

>  <endpoint_value>
5.78

$$$$

----------
- measured_target: Sodium-dependent dopamine transporter (Homo sapiens)
- Sequence (Q01959 whole entry): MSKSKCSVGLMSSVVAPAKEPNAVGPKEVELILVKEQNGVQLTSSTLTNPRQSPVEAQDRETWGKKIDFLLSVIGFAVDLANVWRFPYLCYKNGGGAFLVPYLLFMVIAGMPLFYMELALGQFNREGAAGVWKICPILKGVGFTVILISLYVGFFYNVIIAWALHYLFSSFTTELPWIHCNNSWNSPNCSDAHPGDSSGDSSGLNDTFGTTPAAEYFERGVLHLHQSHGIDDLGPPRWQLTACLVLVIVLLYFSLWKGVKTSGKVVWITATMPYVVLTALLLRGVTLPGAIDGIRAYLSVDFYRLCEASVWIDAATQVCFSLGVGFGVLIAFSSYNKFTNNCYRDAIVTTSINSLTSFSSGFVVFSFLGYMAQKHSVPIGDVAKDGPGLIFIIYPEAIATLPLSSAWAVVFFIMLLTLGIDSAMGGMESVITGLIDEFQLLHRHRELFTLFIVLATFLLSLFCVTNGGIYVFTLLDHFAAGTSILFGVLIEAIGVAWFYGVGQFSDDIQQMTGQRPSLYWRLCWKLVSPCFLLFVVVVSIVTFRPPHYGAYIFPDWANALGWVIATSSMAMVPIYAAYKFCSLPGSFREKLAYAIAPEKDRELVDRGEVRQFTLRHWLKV
- method: Selectivity interaction (GPCR panel (PDSP screen)) EUB0000704a SLC6A3
property_name: Ki

>  <molecule>
Cc1ccc(-c2cnc([C@@]3(O)CC[C@H](C(=O)O)C(C)(C)C3)s2)cc1Nc1cccc(C(F)(F)F)n1 [MRL-SYKi-NC]

>  <endpoint_value>
> 10 µM

$$$$

----------
- measured_target: UniProt:Q9UKR0
- Sequence (Q9UKR0 whole entry): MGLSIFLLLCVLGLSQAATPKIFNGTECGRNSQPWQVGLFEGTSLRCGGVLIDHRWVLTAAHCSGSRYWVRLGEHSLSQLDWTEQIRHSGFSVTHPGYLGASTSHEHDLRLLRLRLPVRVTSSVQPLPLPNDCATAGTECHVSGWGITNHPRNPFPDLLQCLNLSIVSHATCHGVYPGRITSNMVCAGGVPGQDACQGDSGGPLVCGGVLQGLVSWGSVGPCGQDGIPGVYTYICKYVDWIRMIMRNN
- method: Selectivity interaction (Serine protease panel) EUB0000735a KLK12
pIC50: −log10 of the molar value.

>  <molecule>
CC(=O)C1=C(C)N(c2cccc(C(F)(F)F)c2)C(=O)N[C@@H]1c1ccc(C#N)nc1 [BAY-678]

>  <pIC50>
< 4.52

$$$$

----------
- measured_target: 72 kDa type IV collagenase (Homo sapiens, UniProt P08253)
- Sequence (P08253 whole entry): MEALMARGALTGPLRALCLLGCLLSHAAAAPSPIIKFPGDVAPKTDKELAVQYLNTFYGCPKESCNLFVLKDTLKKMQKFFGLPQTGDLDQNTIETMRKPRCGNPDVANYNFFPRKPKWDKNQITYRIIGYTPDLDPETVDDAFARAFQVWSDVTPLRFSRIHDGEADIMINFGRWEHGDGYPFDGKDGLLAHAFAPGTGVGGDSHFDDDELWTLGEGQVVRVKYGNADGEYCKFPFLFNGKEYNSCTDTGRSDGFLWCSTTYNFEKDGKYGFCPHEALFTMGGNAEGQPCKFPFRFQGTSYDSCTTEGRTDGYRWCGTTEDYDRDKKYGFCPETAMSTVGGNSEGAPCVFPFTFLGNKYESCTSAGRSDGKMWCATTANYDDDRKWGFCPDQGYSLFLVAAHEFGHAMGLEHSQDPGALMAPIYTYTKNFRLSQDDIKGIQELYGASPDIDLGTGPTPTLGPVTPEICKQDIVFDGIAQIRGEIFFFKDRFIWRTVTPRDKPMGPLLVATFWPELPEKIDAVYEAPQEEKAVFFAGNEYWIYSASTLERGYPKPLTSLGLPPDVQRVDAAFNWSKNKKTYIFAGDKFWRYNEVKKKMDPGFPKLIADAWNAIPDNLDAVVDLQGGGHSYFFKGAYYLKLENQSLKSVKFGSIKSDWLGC
- method: Selectivity interaction (Lead profiling screen (Eurofins, enzymes, transporters, GPCRs, ion chanels)) EUB0000728a MMP2

>  <smiles_notation>
O=C(O)[C@H]1[C@H](Cn2nnc3ccccc3c2=O)CC[C@@H]1C(=O)c1ccc(OCCC2CCOCC2)cc1

>  <IC50 / nM>
44

$$$$
